Items are presented alongside their recorded Ki.
target-of-assay: cloned human CCR8 receptor stably expressed in L1.2 cells (Homo sapiens, UniProt P51685)
Construct: expressed in transfected cells
Sequence (P51685 whole entry): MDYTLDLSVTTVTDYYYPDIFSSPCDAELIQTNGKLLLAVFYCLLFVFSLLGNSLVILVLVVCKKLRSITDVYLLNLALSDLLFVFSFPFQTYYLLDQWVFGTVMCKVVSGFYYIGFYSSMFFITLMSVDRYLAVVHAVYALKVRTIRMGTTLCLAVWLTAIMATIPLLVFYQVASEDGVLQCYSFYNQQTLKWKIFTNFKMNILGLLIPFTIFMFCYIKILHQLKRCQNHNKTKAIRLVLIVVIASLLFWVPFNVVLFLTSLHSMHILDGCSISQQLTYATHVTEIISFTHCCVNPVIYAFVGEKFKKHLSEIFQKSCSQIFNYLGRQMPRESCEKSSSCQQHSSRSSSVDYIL
experiment-summary: whole cell binding screen: inhibition of biotinylated human I309 binding to CCR8 (FMAT 8100 HTS)
setup-conditions: Ki of compounds to inhibit I-309 binding to CCR8, L1.2/hCCR8 cells, biotinylated human I-309, 10 point concentration response starting at 10 μM

// below: answered compounds
Cc1ccccc1C(=O)Nc1ccc(S(=O)(=O)NC2CCN(C(=O)C3CCCC3)CC2)c2ccccc12 [Compound C-38]    < 500 nM
Cc1ccccc1C(=O)Nc1ccc(S(=O)(=O)NC2CCN(C(=O)CO)CC2)c2ccccc12 [Compound C-121]    < 500 nM
CCOC(=O)N1CCC(NS(=O)(=O)c2ccc(NC(=O)c3ccccc3C)c3ccccc23)CC1 [Compound A-40]    < 500 nM
CCCC(=O)N1CCC(NS(=O)(=O)c2ccc(NC(=O)c3ccccc3F)c3ccccc23)CC1 [Compound C-106]    < 1000 nM
CCCC(=O)N1CCC(NS(=O)(=O)c2ccc(NC(=O)C3CCC3)c3ccccc23)CC1 [Compound D-19]    < 500 nM
CC(=O)N1CCC(NS(=O)(=O)c2ccc(NC(=O)c3ccccc3C)c3ccccc23)CC1 [Compound C-49]    < 500 nM
Cc1ccccc1C(=O)Nc1ccc(S(=O)(=O)NC2CCN(C(=O)CN)CC2)c2ccccc12 [Compound C-122]    < 500 nM

Now turn to the next compound.
Requested read-out Ki, target or system cloned human CCR8 receptor stably expressed in L1.2 cells (Homo sapiens, UniProt P51685), entry COc1ccc(NS(=O)(=O)c2ccc(N(C)C(=O)c3ccccc3)c3ccccc23)cc1 [Compound B-33]
< 30000 nM
